- Target desc: cytidine deaminase (CDA) (Homo sapiens (Human), UniProt P32320)
- Sequence (P32320 whole entry): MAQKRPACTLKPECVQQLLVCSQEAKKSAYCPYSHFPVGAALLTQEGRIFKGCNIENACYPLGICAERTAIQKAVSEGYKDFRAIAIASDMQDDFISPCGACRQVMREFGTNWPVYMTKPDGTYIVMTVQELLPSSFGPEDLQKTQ
- Method notes: Effect of ER-876437 on the half-life of gemcitabine in the presence of CDA in Tris-HCl buffer at 37° C.
- Type: biochemical
- Parameters: dose or concentration left out as unconfirmed
- Condition context: cytidine deaminase (CDA) in Tris-HCl buffer, pH 7.4, Gemcitabine with CDA and ER-876437 in Tris-HCl buffer at 37° C.; read-out: Estimated T1/2 of gemcitabine
Test readout: half-life

Exercise: Form field: reported half-life of "Nc1ccn([C@@H]2O[C@H](CO)[C@@H](O)C2(F)F)c(=O)n1"
Solution: > 13 h
